Can you tell me pKi for the items I'm about to list?
Target: PKC delta kinase (Homo sapiens, UniProt Q05655)
Sequence (Q05655 whole entry): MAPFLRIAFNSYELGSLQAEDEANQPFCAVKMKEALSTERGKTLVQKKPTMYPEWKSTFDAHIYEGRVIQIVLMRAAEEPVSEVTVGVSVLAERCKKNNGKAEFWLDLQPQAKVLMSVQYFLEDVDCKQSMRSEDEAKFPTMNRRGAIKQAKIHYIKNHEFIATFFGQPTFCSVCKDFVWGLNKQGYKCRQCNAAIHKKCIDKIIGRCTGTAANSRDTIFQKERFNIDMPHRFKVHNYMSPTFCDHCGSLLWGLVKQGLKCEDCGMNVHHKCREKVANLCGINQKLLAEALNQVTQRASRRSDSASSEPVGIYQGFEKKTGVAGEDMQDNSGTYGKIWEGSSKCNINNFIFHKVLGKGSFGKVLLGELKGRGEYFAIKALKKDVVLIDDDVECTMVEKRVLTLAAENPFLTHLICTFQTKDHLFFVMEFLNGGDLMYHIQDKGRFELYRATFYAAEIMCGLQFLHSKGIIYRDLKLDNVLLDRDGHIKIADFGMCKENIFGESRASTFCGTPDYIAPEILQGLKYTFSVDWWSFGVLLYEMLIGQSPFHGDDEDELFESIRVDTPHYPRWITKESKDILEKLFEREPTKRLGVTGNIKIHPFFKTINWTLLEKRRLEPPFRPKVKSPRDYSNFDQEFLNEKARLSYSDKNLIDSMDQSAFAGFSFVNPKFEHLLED
Assay: PKC delta kinase inhibition, coupled-enzyme (NADH absorbance) assay, Ki
Format: biochemical
Details: 150 μM ATP, 46 nM PKC delta kinase, 30° C.; read-out: Ki PKC delta
pKi: −log10 of the molar value.

Give the measured pKi of Cc1ccc(-c2n[nH]c3ncccc23)nc1N1CCN[C@@H](CC(C)C)C1 .
> 5.55

Do the same for CC(C)C(N)C1CN(c2ccc(F)c(-c3n[nH]c4ncccc34)n2)CCO1 (centres unmarked) please
> 5.55

Do the same for c1ccc(C[C@H]2CN(c3cccc(-c4n[nH]c5ncccc45)n3)CCN2)cc1 please
> 5.55

Do the same for CC(C)[C@@](C)(O)[C@@H]1CN(c2nc(-c3n[nH]c4ncccc34)c(F)cc2F)CCN1 please
> 7.30

Do the same for CC(C)CC1CCCN(c2ccc(F)c(-c3n[nH]c4ncccc34)n2)C1 (centres unmarked) please
< 5.90

Do the same for CO[C@H]1CN(c2ccc(F)c(-c3n[nH]c4ncccc34)n2)CC[C@H]1N please
> 5.55

Do the same for CC(C)CC1(O)CN(c2ccc(F)c(-c3n[nH]c4ncccc34)n2)CCC1C#N (centres unmarked) please
> 5.55

Do the same for CC(C)C(O)(CF)C1CN(c2ccc(F)c(-c3n[nH]c4ncccc34)n2)CCN1 (centres unmarked) please
> 6.30
